B1: NET1 (parent)
chain: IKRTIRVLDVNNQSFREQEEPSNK

Variants of: B1
Assay: protein stability index of a GFP-peptide fusion (GPS, HEK-293T) (PSI 1-6); higher = more stable;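 further: lentivirally expressed fusions sorted by FACS into six bins by GFP to DsRed ratio, PSI derived from sequencing read proportions per bin multiplied by bin number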
Conditions: c terminus: a fixed tail appended
Measured Endpoint: protein stability index

Residues	Readout Number
IKRTIRVLDVNNQSFREQEEPSNH	4.11
IKRTIRVLDVNNQSFREQEEPSNT	4
IKRTIRVLDVNNQWFREQEEPSNK	3.01
IKRTIRVLDVNNQSFREQERPSNK	2.93
IKRTIRVLDVNNQSKREQEEPSNK	4.02
IKRTIRVLDVNNQSFREQEEPSIK	3.94
IKRTIRVVDVNNQSFREQEEPSNK	3.94
IKRTITVLDVNNQSFREQEEPSNK	3.92
IKRTIKVLDVNNQSFREQEEPSNK	4.04
IKRTIRVLDVNNQSFREQEEPNNK	3.97
IKRTIRVYDVNNQSFREQEEPSNK	3.96
